We begin with a simple list: items and their reported melting point.
measured.parameter: melting point

INSERT INTO assay_data (compound, result) VALUES
  ('Cc1nc2c(F)cccc2cc1NC(=O)[C@@](C)(Cc1ccccc1)CC(F)(F)F', '135 to 136 °C'),
  ('C=C(C)C[C@@](C)(Cc1ccccc1)C(=O)Nc1cnc2c(F)cccc2c1', '132 to 135 °C'),
  ('C=C(C)CC(Cc1ccccc1)C(=O)Nc1cnc2c(F)cccc2c1C (centres unmarked)', '116 to 118 °C'),
  ('CC1(C[C@@](C)(Cc2ccccc2)C(=O)Nc2cnc3c(F)cccc3c2)CC1', '58 to 60 °C'),
  ('Cc1c(NC(=O)C(C)(Cc2ccccc2)CC(C)C)cnc2c(F)cccc12 (centres unmarked)', '73 to 79 °C'),
  ('Cc1c(NC(=O)C(C)(Cc2ccccc2)CC(F)(F)F)cnc2c(Cl)cccc12 (centres unmarked)', '73 to 75 °C'),
  ('CC(Cc1ccccc1)(CC(F)(F)F)C(=O)Nc1cnc2cccc(F)c2c1 (centres unmarked)', '140 to 142 °C'),
  ('CC1(CC(C)(Cc2ccccc2)C(=O)Nc2cnc3c(F)cccc3c2)CC1 (centres unmarked)', '149 to 151 °C');
